Where do the numbers come from? From ChEMBL document CHEMBL3421607.

- Test system: Staphylococcus aureus
- experimentDescription: microbe, parasite or virus in culture
- Type: functional
- conditionContext: ATCC 25923, 5 h
- Description: Inhibition of cell division in penicillin-susceptible Staphylococcus aureus ATCC 25923 assessed as ballooning after 5 hrs by phase contrast microscopy
measurementName: MIC

Lookup result for COc1ccccc1/C=C/C(=O)n1c(C)nc2ccccc21 ; measured MIC: > 128 µg/mL

Sample COc1ccccc1/C=C/C(=O)N1CCN(C(c2ccccc2)c2ccc(Cl)cc2)CC1 (stereo not given) ; MIC observed: 64 µg/mL

Query Cc1nc2ccccc2n1C(=O)/C=C/c1ccc(Cl)cc1 yields MIC of 0.5 µg/mL

Item: O=C(O)c1cn(C2CC2)c2cc(N3CCNCC3)c(F)cc2c1=O [CIPROFLOXACIN] | MIC: > 128 µg/mL

Recorded result, COc1cc(/C=C/C(=O)CC(=O)/C=C/c2ccc(O)c(OC)c2)ccc1O [CURCUMIN] , MIC: > 128 µg/mL

* * *

- Test system: Staphylococcus aureus
- experimentDescription: microbe, parasite or virus in culture
- Type: functional
- conditionContext: ATCC 25923, 5 h
What MIC was measured for each of the following?

Record CCCCCCNC(=O)/C=C/c1ccc(Cl)cc1Cl , field MIC: > 128 µg/mL

The recorded MIC for entry CCN(CC)C(=O)/C=C/c1cc(OC)c(OC)c(OC)c1 equals 32 µg/mL

Value of MIC reported for the molecule Cc1nccn1-c1cc(NC(=O)/C=C/c2ccc([N+](=O)[O-])cc2)cc(C(F)(F)F)c1 is 32 µg/mL

MIC measured on Cc1nc2ccccc2n1C(=O)/C=C/c1ccccc1 = 0.25 µg/mL

So for O=C(/C=C/c1ccccc1Cl)N1CCN(C(c2ccccc2)c2ccc(Cl)cc2)CC1 (stereo unspecified) , the logged MIC turned out to be > 128 µg/mL

Just so you know, measured MIC for CCCCNC(=O)/C=C/c1ccc([N+](=O)[O-])cc1 came out at > 128 µg/mL

The reported value for CCN(CC)C(=O)/C=C/c1ccc(OC)c(OC)c1 in terms of MIC is 64 µg/mL

CCCCNC(=O)/C=C/c1ccc(Cl)cc1Cl [N-BUTYL-3-(2,4-DICHLOROPHENYL)ACRYLAMIDE] has a reported MIC of > 128 µg/mL

Reported MIC of COc1cc(/C=C/C(=O)N(C)C)cc(OC)c1OC : > 128 µg/mL

// MIC value for CCCCNC(=O)/C=C/c1ccc(OC)c(OC)c1 : > 128 µg/mL

The value of MIC measured for the molecule O=C(/C=C/c1ccc(F)cc1)N1CCOCC1 turned out to be > 128 µg/mL

* * *

- Test system: Pseudomonas aeruginosa
- experimentDescription: microbe, parasite or virus in culture
- Format: functional
- conditionContext: ATCC 27853, 5 h
- Description: Inhibition of cell division in penicillin-susceptible Pseudomonas aeruginosa ATCC 27853 assessed as filamentation after 5 hrs by phase contrast microscopy
measurementName: MIC

Entry COc1ccc(/C=C/C(=O)n2c(C)nc3ccccc32)cc1OC ; MIC = > 128 µg/mL

// COc1ccc(NC(=O)/C=C/c2ccc(Cl)cc2Cl)cc1 : MIC value = > 128 µg/mL

What the record says about COc1cc(/C=C/C(=O)n2c(C)nc3ccccc32)cc(OC)c1OC : MIC is > 128 µg/mL

// COc1ccccc1/C=C/C(=O)n1c(C)nc2ccccc21 : MIC value = 128 µg/mL

The value of MIC measured for the compound CCCCNC(=O)/C=C/c1ccc(C#N)cc1 turned out to be > 128 µg/mL

Reported MIC ( CCN(CC)C(=O)/C=C/c1cc(OC)c(OC)c(OC)c1 ) = 128 µg/mL

// C#CCNC(=O)/C=C/c1ccc([N+](=O)[O-])cc1 : MIC value = > 128 µg/mL

Summary for this compound, C#CCNC(=O)/C=C/c1ccc(OC)c(OC)c1 : MIC is > 128 µg/mL

Notebook: COc1ccc(/C=C/C(=O)n2c(C)nc3ccccc32)cc1 , MIC read as > 128 µg/mL

The compound identified as CCCCNC(=O)/C=C/c1ccc(Cl)cc1Cl [N-BUTYL-3-(2,4-DICHLOROPHENYL)ACRYLAMIDE] registered its MIC at > 128 µg/mL

Summary for this compound, O=C(/C=C/c1ccc(F)cc1)N1CCOCC1 : MIC is 128 µg/mL

* * *

Consider the following molecules; for each one, report its MIC.
- System: Staphylococcus aureus
- experimentDescription: microbe, parasite or virus in culture
- Assay type: functional
- conditionContext: ATCC 29213, 24 h
- Description: Antibacterial activity against methicillin-resistant Staphylococcus aureus ATCC 29213 after 24 hrs by broth microdilution method

# MIC (molecule: CCCCNC(=O)/C=C/c1ccc([N+](=O)[O-])cc1 ) is > 128 µg/mL

Field MIC (entry COc1ccc(/C=C/C(=O)N(C)C)cc1OC ) reads > 128 µg/mL

Form field MIC, entry Cc1nc2ccccc2n1C(=O)/C=C/c1ccc(Cl)cc1Cl : > 128 µg/mL

Sample COc1cc(/C=C/C(=O)CC(=O)/C=C/c2ccc(O)c(OC)c2)ccc1O ; MIC observed: > 128 µg/mL

# MIC (molecule: Cc1nccn1-c1cc(NC(=O)/C=C/c2ccc([N+](=O)[O-])cc2)cc(C(F)(F)F)c1 ) is > 128 µg/mL

Recorded result, COc1cc(/C=C/C(=O)N2CCOCC2)cc(OC)c1OC , MIC: 128 µg/mL

Value of measured MIC for the entry COc1ccccc1/C=C/C(=O)n1c(C)nc2ccccc21 : 128 µg/mL

According to the records, this molecule Cc1nc2ccccc2n1C(=O)/C=C/c1ccccc1Cl displays MIC of 128 µg/mL

MIC for Cc1nc2ccccc2n1C(=O)/C=C/c1ccc(F)cc1 is > 128 µg/mL

Per the record, O=C(/C=C/c1ccccc1Cl)N1CCN(C(c2ccccc2)c2ccc(Cl)cc2)CC1 (centres undefined) has MIC of > 128 µg/mL

Reported MIC ( O=C(/C=C/c1ccc(Cl)cc1Cl)N1CCN(C(c2ccccc2)c2ccc(Cl)cc2)CC1 (centres undefined) ) = > 128 µg/mL

# MIC (molecule: COc1cc(/C=C/C(=O)n2c(C)nc3ccccc32)cc(OC)c1OC ) is > 128 µg/mL

MIC in this record for CCCCNC(=O)/C=C/c1ccc(OC)c(OC)c1 : > 128 µg/mL

The measured MIC associated with COc1ccccc1/C=C/C(=O)N1CCN(C(c2ccccc2)c2ccc(Cl)cc2)CC1 (centres undefined) reads > 128 µg/mL

Quick note, MIC for COc1ccc(NC(=O)/C=C/c2ccc(Cl)cc2Cl)cc1 landed at > 128 µg/mL

Please fill in: MIC reported for CCN(CC)C(=O)/C=C/c1ccc(OC)c(OC)c1 = > 128 µg/mL

Query CCCNC(=O)/C=C/c1ccc([N+](=O)[O-])cc1 yields MIC of > 128 µg/mL

Briefly, MIC measured for Cc1nc2ccccc2n1C(=O)/C=C/c1ccc([N+](=O)[O-])cc1 : > 128 µg/mL

For CCCNC(=O)/C=C/c1ccc(Cl)cc1Cl the molecule record lists MIC as > 128 µg/mL

Lab note: COc1ccc(/C=C/C(=O)N2CCOCC2)cc1OC gave MIC of > 128 µg/mL

The recorded MIC for CC(C)NC(=O)/C=C/c1ccc(Cl)cc1Cl is > 128 µg/mL

Short answer for COc1cc(/C=C/C(=O)N(C)C)cc(OC)c1OC : MIC was > 128 µg/mL

Briefly, MIC measured for Cc1nc2ccccc2n1C(=O)/C=C/c1ccc(Cl)cc1 : > 128 µg/mL

MIC reading for COc1ccc(/C=C/C(=O)Nc2cccnc2)cc1 : > 128 µg/mL

C#CCNC(=O)/C=C/c1ccc([N+](=O)[O-])cc1 yielded MIC of > 128 µg/mL

# MIC (molecule: CCCCNC(=O)/C=C/c1ccc(C#N)cc1 ) is > 128 µg/mL

Entry CCN(CC)C(=O)/C=C/c1ccc(Cl)cc1Cl — recorded MIC = 128 µg/mL

get_value(item= COc1ccc(/C=C/C(=O)n2c(C)nc3ccccc32)cc1 , readout=MIC) returns 128 µg/mL

Lookup result for O=C(/C=C/c1ccc(Cl)cc1Cl)N1CCOCC1 ; measured MIC: > 128 µg/mL

Notebook: O=C(/C=C/c1ccc(F)cc1)N1CCOCC1 , MIC read as > 128 µg/mL

Measured MIC of C#CCNC(=O)/C=C/c1ccc(OC)c(OC)c1 : > 128 µg/mL

Measured MIC of COc1ccc(/C=C/C(=O)n2c(C)nc3ccccc32)cc1OC : > 128 µg/mL

The molecule listed as O=C(O)/C=C/c1ccccc1 has a reported MIC of > 128 µg/mL

Data point: O=C(O)c1cn(C2CC2)c2cc(N3CCNCC3)c(F)cc2c1=O ; MIC = 4 µg/mL

Entry CCCCCCNC(=O)/C=C/c1ccc(Cl)cc1Cl — recorded MIC = > 128 µg/mL

The reported value for CCCCNC(=O)/C=C/c1ccc(Cl)cc1Cl [N-BUTYL-3-(2,4-DICHLOROPHENYL)ACRYLAMIDE] in terms of MIC is > 128 µg/mL

// CC(C)NC(=O)/C=C/c1ccc([N+](=O)[O-])cc1 : MIC value = > 128 µg/mL

// field: MIC; key: CCN(CC)C(=O)/C=C/c1cc(OC)c(OC)c(OC)c1 ; value = > 128 µg/mL

Value of measured MIC for the entry Cc1nc2ccccc2n1C(=O)/C=C/c1ccccc1 : > 128 µg/mL
